- Tested on: RPMI-8226 leukemia
- assay summary: NCI tumour cell line growth inhibition, 48 h
measurement type: log10 TGI (log10 of the value in µM)
Short version: log10 scale, TGI, µM.

**Q:** Answer with the recorded log10 TGI for the compound listed here: CCN(CC)c1ccc2nc3ccc(=[N+](CC)CC)cc-3oc2c1
**A:** 1.30

**Q:** For the compound OCCCCC#Cc1ccccc1C#Cc1cccc(C(F)(F)F)c1 , give its reported log10 TGI.
**A:** 1.61

**Q:** Return value of log10 TGI for input O=C(Nc1ccc(OC(F)(F)Cl)cc1)c1cnc(N2CC[C@@H](O)C2)c(-c2ccn[nH]2)c1 , no commentary.
**A:** 1.60

**Q:** Kindly indicate its recorded log10 TGI. Item: COCCOC1=C(Cl)C(=O)c2ccccc2C1=O
**A:** 0.83

**Q:** Determine its reported log10 TGI: Cc1ccc(S[C@@](C=O)(NC(=O)OCc2ccccc2)C(F)(F)F)cc1
**A:** 1.76

**Q:** Consider the compound CCc1ccc(Nc2cc(C)c3ccc(O)cc3n2)cc1 and give its recorded log10 TGI.
**A:** 1.31

**Q:** Supply reported log10 TGI belonging to this compound: O=C(c1ccc(Cl)cc1)C1OC12C(=O)Nc1c(Cl)cc(Cl)cc12 (configuration not stated)
**A:** 1.66

**Q:** Look up and state reported log10 TGI for COc1ccc(Nc2cnc3cc(N)cc(N)c3n2)cc1
**A:** 1.41

**Q:** Let me know recorded log10 TGI for Cc1cc(Cl)nc(N(CCNc2ccnc3cc(Cl)ccc23)Cc2ccco2)n1 , thanks.
**A:** 0.63

**Q:** Give the reported log10 TGI for this compound. O=C(COc1ccc(/C=C2\Oc3ccccc3C2=O)cc1)Nc1nc2ccccc2s1
**A:** 1.20

**Q:** Given the compound Cc1cccc(Cn2cc(CO)c3cnccc32)c1 , write its reported log10 TGI.
**A:** 1.86
